- SYSTEM_TESTED: UniProtKB P14900
- Sequence (P14900 whole entry): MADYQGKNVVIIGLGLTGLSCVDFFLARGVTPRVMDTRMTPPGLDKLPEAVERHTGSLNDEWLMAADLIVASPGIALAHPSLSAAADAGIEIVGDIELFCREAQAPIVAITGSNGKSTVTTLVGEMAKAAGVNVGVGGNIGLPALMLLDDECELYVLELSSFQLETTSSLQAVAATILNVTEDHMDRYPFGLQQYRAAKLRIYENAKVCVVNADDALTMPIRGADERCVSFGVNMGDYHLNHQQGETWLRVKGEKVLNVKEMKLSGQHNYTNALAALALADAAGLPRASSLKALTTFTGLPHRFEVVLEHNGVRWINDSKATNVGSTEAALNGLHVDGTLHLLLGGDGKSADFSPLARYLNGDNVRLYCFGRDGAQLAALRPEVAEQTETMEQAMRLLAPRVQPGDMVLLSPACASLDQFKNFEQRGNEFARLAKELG
- TEST: Inhibition of MurD, colorimetric malachite green orthophosphate detection
- Format: biochemical
- REPORTED_CONDITIONS: 0.25 h; residual activity at 100µM compound; read-out: MurD RA (%)
remaining activity at 100 µM values, listed per item
Entry rule: numbers only, all in %.

// known answers, use as guide
CC(=O)Nc1ccc(Oc2ccccc2C(=O)NNS(=O)(=O)c2ccc3ccccc3c2)cc1 = 93
CC(=O)Nc1ccc(Oc2cccc(C(=O)NNS(=O)(=O)c3ccc4ccccc4c3)c2)cc1 = 94
O=C(Nc1ccccc1/C=N/NS(=O)(=O)c1ccc2ccccc2c1)c1ccccc1Br = 4
O=C(Nc1ccccc1/C=N/NS(=O)(=O)c1ccc2ccccc2c1)c1ccc([N+](=O)[O-])cc1 = 4
O=C(Nc1cccc(/C=N/NS(=O)(=O)c2ccc3ccccc3c2)c1)c1ccccc1 = 56

Continue with the next compound.
Write down the reported remaining activity at 100 µM of "O=[N+]([O-])c1ccccc1COc1ccccc1/C=N/NS(=O)(=O)c1ccc2ccccc2c1" , test system: UniProtKB P14900.
32
